Origin of the recorded values: PubChem BioAssay (NCI)

experiment: NCI Yeast Anticancer Drug Screen. Data for the cln2 rad14 strain (AID 165);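 further: 0% = growth equal to vehicle treated cultures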; settings: S. cerevisiae cln2 rad14 strain, at 5.0 µM (retest, dose inferred, filed as 0.5)
The panel holds about 79,000 compounds, 15% with a hit somewhere; the sample as a whole holds those more often. Active and inactive are the calls of the source. No stated cut-off is given here; in the data, active means growth inhibition above about 70%; inactive means the rest.
Labels: 1 (yes) = active, 0 (no) = inactive

Compound	Label class
COc1ccc2c(c1)O[C@H]1c3ccc(O)cc3OC[C@@H]21	0 (no)
CCN(CC)CCOC(=O)Nc1cc(Cl)cc(Cl)c1	0 (no)
O=C1OC(CC(=O)c2ccccc2Cl)C(Cl)=C1Cl (stereo unspecified)	0 (no)
N=C(N)c1ccc(Nc2ccc(C(=N)N)cc2)cc1	0 (no)
N#CC1C(=O)NC(=O)C(C#N)C1c1ccc(Cl)c(Cl)c1 (stereo unspecified)	0 (no)
Cc1ccc[n+](CC(=O)C2CCC3CC4CCCCC4CC3C2)c1 (stereo unspecified)	0 (no)
O=C1C=CC(=O)C1=Cc1ccc(Cl)c(Cl)c1	1 (yes)
CC(N)C1C(C)CC2C3CC=C4CC(O)CCC4(C)C3CCC21C (stereo unspecified)	0 (no)
O=C1C(Cl)=C(Cl)C(=C2C(Cl)=C(Cl)C(=O)C(Cl)=C2Cl)C(Cl)=C1Cl	1 (yes)
CC1C/C(=C\c2ccc(O)c(O)c2)C(=O)/C(=C/c2ccc(O)c(O)c2)C1 (stereo unspecified)	0 (no)
O=S(=O)(Nc1ccc(-c2ccc(Cl)cc2)cc1)c1ccccc1	0 (no)
